Exercise: for every item that follows, state its recorded pIC50.
TESTED_TARGET: HLA-DRB4*0101 (human)
PROCEDURE_SUMMARY: competition binding
EXPERIMENTAL_CONTEXT: modification not given
pIC50: −log10 of the molar value.

Incoming: For the binder RGYHQYAYDGKDYIA [p22] , what pIC50 is on record?
Outgoing: < 4.00

Incoming: Moving on to RKVKAHSQTHRVDLG [p12]
Outgoing: 5.53

Incoming: Same lookup for VRFDSDAASQRMEPR [p8*] , please.
Outgoing: < 4.00

Incoming: Then what about the binder APWIEQEGPEYWDGE [p10] ?
Outgoing: < 4.00

Incoming: Same question, IAVGYVDDTQFVRFD [p5] this time
Outgoing: < 4.00

Incoming: Now the binder HSMRYFFTSVSRPGR [p1*]
Outgoing: 6.71

Incoming: Continue with LTLRWEPSSQPTIPI [p51*]
Outgoing: 4.59

Incoming: Queued: PEYWDGETRKVKAHS [p11]
Outgoing: < 4.00
